system: NCI-H226; assay: NCI tumour cell line growth inhibition, 48 h
Activity calls are given as the source filed them. Cut-off read from the data, not from the text of the source: active = GI50 up to about 1.1 µM and inactive = higher.
Outcome field: choose from active, inactive

1. CC[C@H]1C=CCC[C@@]2(C[C@@H]3CC[C@H]4[C@@H](C(=O)OCCCCCCCCCCCCCCCC(=O)N(CCCN)C[C@@H](O)CCN)[C@@]5(CCC[C@@H](C)O5)NC(=[N+]34)N2)O1 = inactive
2. CCOC(=O)NNC(=O)C1CSC(c2ccccc2)N1C(C)=O (stereo not drawn) = inactive

### Prompt Hi, do you know how CSc1cc(Cl)c(C)cc1S(=O)(=O)NC(=O)NNc1ccc(F)c(Cl)c1 came out in this test?
### Response inactive

### Prompt Hi, do you know how Cc1cccc2nc3cccc(C(=O)NCCC[N+](C)(CCCNC(=O)c4cccc5nc6cccc(C)c6nc45)Cc4c([N+](=O)[O-])ncn4C)c3nc12 came out in this test?
### Response active

### Prompt Hi, do you know how Nc1nnc(-c2ccco2)c(-c2ccco2)n1 came out in this test?
### Response inactive

----------
system: SR; test: NCI tumour cell line growth inhibition, 48 h
The source made the active and inactive calls. Rule as the data show it: active = GI50 up to about 1.1 µM and inactive = higher.
Outcome field: choose from 1 (active), -1 (inactive)

1. O=C1CSc2nc3ccccc3n2/C=N\N1 = -1
2. Cc1ccc(S(=O)OCC23CC4CC(CC(C4)C2)C3)cc1 (stereo unspecified) = -1
3. CN(C)CCn1c(=O)nc2c3c(c([N+](=O)[O-])ccc31)Nc1ccc(O)cc1-2 = -1
4. COc1cc2c(oc(=O)c3c4oc([Si](C)(C)C)cc4cc(OC)c23)c2cccc(O)c12 = -1
5. OCC1C2CCC3(OCCO3)C12 (stereo unspecified) = -1

### Prompt Hi, do you know how COP(=O)(OC)/C(=C/c1cn(C(c2ccccc2)(c2ccccc2)c2ccccc2)cn1)NC=O came out in this test?
### Response -1

### Prompt Hi, do you know how Cc1sc2nc(-c3cc([N+](=O)[O-])c(Cl)cc3Cl)c(/C=N/NC(=N)N)n2c1C came out in this test?
### Response 1

### Prompt Hi, do you know how COC1CC(OC)C(O)C(CO)O1 (stereo unspecified) came out in this test?
### Response -1

----------
system: M14; assay: NCI tumour cell line growth inhibition, 48 h
Activity calls are given as the source filed them. No stated cut-off is given here; in the data, active = GI50 up to about 1.1 µM and inactive = higher.
Outcome field: choose from yes for active, no for inactive

// below: answered compounds
1) COc1cc(/C=C/C(=O)C(C)(C)C)cc(OC)c1OC = no
2) COc1ccc2c(c1)CCN=C2Cc1cc(OC)c(OC)cc1CCCl = no
3) c1nc(N2CC2)c2cnn(C3CCCCO3)c2n1 (centres undefined) = no
4) O=C(O)c1ccc([C@@H]2C(=O)N(O)[C@@H]3C=CC[C@@H]32)cc1 = no
5) COC(=O)C1=C(O)C(C(=O)OC)[C@@]2(O)[C@@H](C(=O)OC)C(c3ccc(OC(=O)/C(=C/c4ccc(Cl)cc4)c4ccc(Cl)cc4)cc3)C[C@@H]1[C@@H]2C(=O)OC (some centres undefined) = no
6) CC1CC(=O)C(C(O)CC2CC(=O)N(c3ccccc3)C(=O)C2)C(C)C1 (centres undefined) = no
7) CCOC(=O)C1=C(C)N(C2OC(COC(=O)c3ccccc3)C(OC(=O)c3ccccc3)C2OC(=O)c2ccccc2)C(=S)NC1c1ccccc1 (centres undefined) = no
8) CCC(C)NC(=S)N/N=C(\C)c1ccccn1 (centres undefined) = yes

Attention now turns to another entry.
### Prompt Hi, do you know how COC(CN1C=C(Sc2ccccc2)CC1)OC came out in this test?
### Response no
